The origin of these recorded values is paper PMC4742142.

Target: Chk2 (Homo sapiens, UniProt O96017)
Sequence (O96017 whole entry): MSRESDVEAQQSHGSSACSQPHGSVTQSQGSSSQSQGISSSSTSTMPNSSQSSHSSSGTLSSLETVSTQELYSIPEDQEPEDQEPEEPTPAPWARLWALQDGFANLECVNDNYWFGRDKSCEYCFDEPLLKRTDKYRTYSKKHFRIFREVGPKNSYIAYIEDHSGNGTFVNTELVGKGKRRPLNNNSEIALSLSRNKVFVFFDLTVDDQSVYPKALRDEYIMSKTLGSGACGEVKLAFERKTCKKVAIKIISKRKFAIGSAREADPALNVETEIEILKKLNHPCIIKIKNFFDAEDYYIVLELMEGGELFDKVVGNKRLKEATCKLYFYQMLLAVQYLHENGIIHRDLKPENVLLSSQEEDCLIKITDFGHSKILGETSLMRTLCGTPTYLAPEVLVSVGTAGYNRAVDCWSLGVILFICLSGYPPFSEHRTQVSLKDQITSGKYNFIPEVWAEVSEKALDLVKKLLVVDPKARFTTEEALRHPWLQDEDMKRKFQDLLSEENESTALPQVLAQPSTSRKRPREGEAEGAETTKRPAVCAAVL
Assay: Etoposide induced Chk2 autophosphorylation (pS516) in HT29 cells, immunoblotting
Type: cell-based
Design: endogenous in cells; host or cells: HT29
Conditions: 1 hour compound then 25 μM etoposide 5 hours

compound.string: CN(C)CC(C)(C)COc1ccc2[nH]c(-c3cc(NC(=O)c4cnn(Cc5ccccc5)c4)c[nH]c3=O)cc2c1
IC50: 0.904 µM

###

Experiment: Pharmacokinetics of V158411 and irinotecan, single and combination administration
Format: in vivo
Settings: female, Balb/C, mouse, plasma, other: irinotecan intraperitoneal, V158411 intravenous; read-out: CL or CL/F
readout.label: CL/F (mL/min/kg)

compound: CN(C)CC(C)(C)COc1ccc2[nH]c(-c3cc(NC(=O)c4cnn(Cc5ccccc5)c4)c[nH]c3=O)cc2c1 [V158411]
readout.label: CL/F
unit.label: mL/min/kg
measured.value: 8.2

###

Overview of reported IC50 across a group of molecules:
Target: UniProtKB O14757
Sequence (O14757 whole entry): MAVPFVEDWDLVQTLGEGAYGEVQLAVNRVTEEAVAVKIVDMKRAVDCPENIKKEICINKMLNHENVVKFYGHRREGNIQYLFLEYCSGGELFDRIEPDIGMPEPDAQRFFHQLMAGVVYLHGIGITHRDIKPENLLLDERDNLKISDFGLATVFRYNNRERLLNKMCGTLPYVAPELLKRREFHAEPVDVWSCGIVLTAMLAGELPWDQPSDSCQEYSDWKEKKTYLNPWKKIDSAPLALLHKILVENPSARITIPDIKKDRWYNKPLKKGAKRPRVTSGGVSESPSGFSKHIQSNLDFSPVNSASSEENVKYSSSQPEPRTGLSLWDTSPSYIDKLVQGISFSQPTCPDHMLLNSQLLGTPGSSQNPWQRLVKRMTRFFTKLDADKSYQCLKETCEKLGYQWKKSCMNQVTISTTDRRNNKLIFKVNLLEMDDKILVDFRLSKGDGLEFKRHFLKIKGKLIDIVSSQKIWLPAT
Assay: In vitro kinase assay, Chk1
Type: biochemical

compound.string: Cn1cc(NC(=O)c2c[nH]c(=O)c(-c3cc4ccccc4[nH]3)c2)cn1
IC50: > 400000 nM
//
compound.string: CN(C)CC(C)(C)COc1ccc2[nH]c(-c3cc(NC(=O)c4cnn(Cc5ccccc5)c4)c[nH]c3=O)cc2c1
IC50: 4.4 nM
//
compound.string: O=C(Nc1cnn(Cc2ccccc2)c1)c1c[nH]c(=O)c(-c2cc3ccccc3[nH]2)c1
IC50: 17 nM
//
compound.string: O=c1[nH]cccc1-c1nc2ccccc2[nH]1
IC50: ~100000 nM
//
compound.string: CCNC(=O)c1c[nH]c(=O)c(-c2cc3ccccc3[nH]2)c1
IC50: 4200 nM
//
compound.string: O=C(Nc1c[nH]c(=O)c(-c2cc3ccccc3[nH]2)c1)c1cnn(Cc2ccccc2)c1
IC50: 7.6 nM

###

Biological target: CDK1 (Homo sapiens)
Sequence (P06493 whole entry): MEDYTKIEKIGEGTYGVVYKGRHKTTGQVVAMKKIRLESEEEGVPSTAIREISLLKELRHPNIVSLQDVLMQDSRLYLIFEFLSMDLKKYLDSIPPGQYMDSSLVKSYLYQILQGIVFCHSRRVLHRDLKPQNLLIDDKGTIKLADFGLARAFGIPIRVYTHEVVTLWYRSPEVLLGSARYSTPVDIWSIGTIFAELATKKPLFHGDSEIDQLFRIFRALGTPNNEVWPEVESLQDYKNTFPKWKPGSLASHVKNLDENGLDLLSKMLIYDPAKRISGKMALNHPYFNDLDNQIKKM
Sequence (P14635 whole entry partner): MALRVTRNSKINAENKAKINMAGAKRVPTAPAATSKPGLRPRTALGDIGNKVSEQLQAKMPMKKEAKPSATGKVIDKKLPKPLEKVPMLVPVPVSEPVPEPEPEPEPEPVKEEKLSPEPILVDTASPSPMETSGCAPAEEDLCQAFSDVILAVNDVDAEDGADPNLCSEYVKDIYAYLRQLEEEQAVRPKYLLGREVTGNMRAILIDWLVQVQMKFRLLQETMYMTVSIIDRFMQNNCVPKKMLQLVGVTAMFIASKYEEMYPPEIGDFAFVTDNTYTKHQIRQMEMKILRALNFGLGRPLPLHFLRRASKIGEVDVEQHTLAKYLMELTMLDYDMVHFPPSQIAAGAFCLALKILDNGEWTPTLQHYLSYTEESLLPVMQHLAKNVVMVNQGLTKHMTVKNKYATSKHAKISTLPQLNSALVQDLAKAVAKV
pIC50: −log10 of the molar value.

molecule: CN(C)CC(C)(C)COc1ccc2[nH]c(-c3cc(NC(=O)c4cnn(Cc5ccccc5)c4)c[nH]c3=O)cc2c1 [V158411]
pIC50: < 4.30
